- Protocol details: Cytotoxicity against human CEM-SS cells assessed as cell viability at 10 uM after 6 days by MTS assay
- Assay type: cell-based
- Measurement setup: read-out: Activity

Compound	viability at 144 h, 10 µM [%]
Cc1cn([C@H]2C[C@H](O)[C@](CO)(n3cc(COc4ccc5ccccc5c4)nn3)O2)c(=O)[nH]c1=O	93
Cc1cn([C@H]2C[C@H](O)[C@](CO)(n3cc(-c4ccc(F)cc4)nn3)O2)c(=O)[nH]c1=O	95
CCOC(=O)C(Cc1ccc(OCc2cn([C@]3(CO)O[C@@H](n4cc(C)c(=O)[nH]c4=O)C[C@@H]3O)nn2)cc1)NC(=O)OC(C)(C)C (some centres undefined)	97
Cc1cn([C@H]2C[C@H](O)[C@](CO)(n3cc(-c4cc5ccccc5c5ccccc45)nn3)O2)c(=O)[nH]c1=O	86

* * *

// viability at 144 h, 10 µM lookup, one value per entry
- Protocol details: Cytotoxicity against human CEM-SS cells assessed as cell viability at 10 uM after 6 days by MTS assay
- Format: cell-based
- Measurement setup: read-out: Activity

Molecule	viability at 144 h, 10 µM / %
COc1ccc(-c2cn([C@]3(CO)O[C@@H](n4cc(C)c(=O)[nH]c4=O)C[C@@H]3O)nn2)cc1	84
CC(=O)Nc1ccc(-c2cn([C@]3(CO)O[C@@H](n4cc(C)c(=O)[nH]c4=O)C[C@@H]3O)nn2)cc1	98
Cc1ccc(-c2cn([C@]3(CO)O[C@@H](n4cc(C)c(=O)[nH]c4=O)C[C@@H]3O)nn2)cc1	99
Cc1cn([C@H]2C[C@H](O)[C@](CO)(n3cc(CON4C(=O)c5ccccc5C4=O)nn3)O2)c(=O)[nH]c1=O	99
Cc1cn([C@H]2C[C@H](O)[C@](CO)(n3cc(-c4ccccc4)nn3)O2)c(=O)[nH]c1=O	94
COc1ccc2c(-c3cn([C@]4(CO)O[C@@H](n5cc(C)c(=O)[nH]c5=O)C[C@@H]4O)nn3)cccc2c1	95
COc1ccc2cc(-c3cn([C@]4(CO)O[C@@H](n5cc(C)c(=O)[nH]c5=O)C[C@@H]4O)nn3)ccc2c1	95
Cc1cn([C@H]2C[C@H](O)[C@](CO)(n3cc(C4CCCCC4)nn3)O2)c(=O)[nH]c1=O	96
Cc1cn([C@H]2C[C@H](O)[C@](CO)(n3cc(-c4ccc(Oc5ccccc5)cc4)nn3)O2)c(=O)[nH]c1=O	95
Cc1cn([C@H]2C[C@H](O)[C@](CO)(n3cc(COc4ccccc4)nn3)O2)c(=O)[nH]c1=O	97
Cc1cn([C@H]2C[C@H](O)[C@](CO)(n3cc(-c4ccc(-c5ccccc5)cc4)nn3)O2)c(=O)[nH]c1=O	80
Cc1cn([C@H]2C[C@H](O)[C@](CO)(n3cc(CSc4ccccc4)nn3)O2)c(=O)[nH]c1=O	99
Cc1cn([C@H]2C[C@H](O)[C@](CO)(n3cc(-c4ccc(N(C)C)cc4)nn3)O2)c(=O)[nH]c1=O	100
Cc1cn([C@H]2C[C@H](O)[C@](CO)(n3cc(C(O)c4ccccc4)nn3)O2)c(=O)[nH]c1=O (stereo partly specified)	100
Cc1cn([C@H]2C[C@H](O)[C@](CO)(n3cc(C4CCCC4)nn3)O2)c(=O)[nH]c1=O	100
Cc1cn([C@H]2C[C@H](O)[C@](CO)(n3cc(CO)nn3)O2)c(=O)[nH]c1=O	100

* * *

// viability at 144 h, 10 µM lookup, one value per entry
- Protocol details: Cytotoxicity against human CEM-SS cells assessed as cell viability at 10 uM after 6 days by MTS assay
- Assay type: cell-based
- Measurement setup: read-out: Activity

Compound	viability at 144 h, 10 µM, %
Cc1cn([C@H]2C[C@H](O)[C@](CO)(n3cc(-c4ccc(Br)cc4)nn3)O2)c(=O)[nH]c1=O	100
Cc1cn([C@H]2C[C@H](O)[C@](CO)(n3cc(C(C)O)nn3)O2)c(=O)[nH]c1=O (some centres undefined)	100
Cc1cn([C@H]2C[C@H](O)[C@](CO)(n3cc(C4CC4)nn3)O2)c(=O)[nH]c1=O	99
Cc1cn([C@H]2C[C@H](O)[C@](CO)(n3cc(-c4ccsc4)nn3)O2)c(=O)[nH]c1=O	100

Ref: ChEMBL document CHEMBL3132855
